- assayProcedure: qHTS assay to identify small molecule agonists of the estrogen receptor alpha (ER-alpha) signaling pathway in the presence of an antagonist - cell viability counter screen (AID 1259386);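 also: cells exposed to compounds for 22 h at 37 °C before the viability read; nearly all actives have a fitted effect of over 30% in size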
- runConditions: VM7Luc4E2 viability, CellTiter-Fluor fluorescence, 22 h; series mostly up to 92.4 µM
Results filed as inconclusive are left out. The source made the active and inactive calls. Calls follow the shape of the dose curve; as a rule, active = well fitted cell-killing curve with a large enough effect in the repeat runs; inconclusive = weak or mixed curves, or effect the other way; inactive = no such curve, though single readings can be large or run the other way.
Respond only with the outcome that fits, drawn from active, inactive

Recorded results for 3 compounds are shown here.
| compound | group |
| --- | --- |
| CNCCCC12CCC(c3ccccc31)c1ccccc12 | inactive |
| CCC(C)(O)CCCC(C)C (stereo not given) | inactive |
| O=C(COc1ccc(Cl)cc1)N1CCN(Cc2ccc3c(c2)OCO3)CC1 | inactive |

# evaluate next
// query # fetch the recorded call for CCCCOCCOCCOCCO here
// result inactive

* * *

- assayProcedure: A CellTox Green Cytotoxicity Assay to monitor cytotoxicity in HepG2 cells - 40 hour (AID 1224879); also: nearly all actives have a fitted effect of over 40% in size
- runConditions: CellTox Green fluorescence; series mostly up to 76.8 µM
Results filed as inconclusive are left out. The source made the active and inactive calls. Calls come from the whole dose curve; as a rule, active = well fitted activation curve with a large enough effect in the repeat runs; inconclusive = weak or mixed curves; inactive = flat fitted curve, though single readings scatter.
Respond only with the outcome that fits, drawn from 1 (active), 0 (inactive)

Recorded results for 5 molecules are shown here.
| molecule | group |
| --- | --- |
| COC(=O)c1ccccc1 | 0 |
| C[C@]12CCC(=O)C=C1CC[C@@H]1[C@@H]2C(=O)C[C@@]2(C)[C@H]1CC[C@]2(O)C(=O)CO | 0 |
| Oc1ccc(O)cc1 | 0 |
| CCC(C)c1ccccc1O (stereo not drawn) | 1 |
| CC(C)CC(C)(O)C#CC(C)(O)CC(C)C (stereo not drawn) | 0 |

// query # fetch the recorded call for O=[N+]([O-])c1ccc2c(c1)Cc1ccccc1-2 here
// result 0

// query And CC(C)Oc1ccc2c(=O)c(-c3ccccc3)coc2c1 ?
// result 0

// query And CCCCC/C=C/C=C/C=O ?
// result 1

* * *

- assayProcedure: qHTS assay to identify small molecule agonists of H2AX - cell viability counter screen (AID 1224847);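 also: wild-type CHO-K1 cells; top concentration of the series differs between compounds; nearly all actives have a fitted effect of over 30% in size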
- runConditions: CHO-K1 viability, CellTiter-Glo luminescence, 3 h; series mostly up to 154 µM
Inconclusive results are not listed. Activity calls are given as the source filed them. Calls follow the shape of the full dose curve.
Respond only with the outcome that fits, drawn from true (1) for active, false (0) for inactive

Recorded results for 3 compounds are shown here.
| compound | group |
| --- | --- |
| OC[C@H]1O[C@@H]2O[C@H]3[C@H](O)[C@@H](O)[C@@H](O[C@H]4[C@H](O)[C@@H](O)[C@@H](O[C@H]5[C@H](O)[C@@H](O)[C@@H](O[C@H]6[C@H](O)[C@@H](O)[C@@H](O[C@H]7[C@H](O)[C@@H](O)[C@@H](O[C@H]8[C@H](O)[C@@H](O)[C@@H](O[C@H]1[C@H](O)[C@H]2O)O[C@@H]8CO)O[C@@H]7CO)O[C@@H]6CO)O[C@@H]5CO)O[C@@H]4CO)O[C@@H]3CO | false (0) |
| CC1=CC2C3CC(C=C3C)C2C1 (stereo not given) | false (0) |
| c1ccc2c(c1)Oc1ccccc1S2 | false (0) |

// query # fetch the recorded call for NC=O here
// result false (0)

// query And NNc1ccc(C(=O)O)cc1 ?
// result false (0)

// query And c1ccncc1 ?
// result false (0)

// query And Clc1nc(Cl)c(Cl)c(Cl)c1Cl ?
// result false (0)

// query And OCCO ?
// result false (0)

// query And O=CCCCC=O ?
// result false (0)

Origin of the recorded values: PubChem BioAssay (Tox21)
